- SYSTEM: Prostaglandin G/H synthase 1 (Homo sapiens, UniProt P23219)
- Sequence (P23219 whole entry): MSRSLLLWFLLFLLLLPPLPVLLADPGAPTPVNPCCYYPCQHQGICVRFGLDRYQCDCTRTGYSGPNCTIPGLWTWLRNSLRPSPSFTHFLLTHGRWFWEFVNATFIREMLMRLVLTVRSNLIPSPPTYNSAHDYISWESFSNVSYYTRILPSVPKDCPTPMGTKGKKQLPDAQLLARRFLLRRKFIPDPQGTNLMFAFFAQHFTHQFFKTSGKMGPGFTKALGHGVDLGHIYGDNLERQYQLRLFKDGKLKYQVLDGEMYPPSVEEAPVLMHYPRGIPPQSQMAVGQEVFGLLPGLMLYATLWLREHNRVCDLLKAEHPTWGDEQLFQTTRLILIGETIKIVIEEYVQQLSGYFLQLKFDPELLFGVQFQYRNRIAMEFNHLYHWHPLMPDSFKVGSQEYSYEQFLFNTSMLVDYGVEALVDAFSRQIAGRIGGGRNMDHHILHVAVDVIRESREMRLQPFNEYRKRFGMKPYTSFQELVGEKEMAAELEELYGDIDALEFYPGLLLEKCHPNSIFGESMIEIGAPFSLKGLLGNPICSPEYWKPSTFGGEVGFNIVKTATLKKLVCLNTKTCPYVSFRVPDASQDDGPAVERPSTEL
- ASSAY NAME: Inhibition of human Prostaglandin G/H synthase 1 at 10 ug/mL expressed as mean percent inhibition of control PGE-2 production
The molecules listed here are annotated with their inhibition.
RECORDED METRIC: inhibition (%)

{"STRUCTURE": "Cc1cc2c(s1)C(C(=O)Nc1ccccn1)=C(O)N(C)S2(=O)=O", "ASSAY VALUE": 82}
{"STRUCTURE": "CN1C(=O)/C(=C(/O)Nc2ccc(Cl)cc2Cl)c2cc(Cl)ccc2C1=O", "ASSAY VALUE": 97}
{"STRUCTURE": "CN1C(C(=O)Nc2nccs2)=C(O)c2ccc3ccccc3c2S1(=O)=O", "ASSAY VALUE": 100}
{"STRUCTURE": "CN1C(C(=O)Nc2ccccn2)=C(O)c2ccc3ccccc3c2S1(=O)=O", "ASSAY VALUE": 100}
{"STRUCTURE": "Cc1cnc(NC(=O)C2=C(O)c3c(c4ccccc4n3C)S(=O)(=O)N2C)s1", "ASSAY VALUE": 97}

----------
The compounds listed here are annotated with their inhibition.
- SYSTEM: Prostaglandin G/H synthase 1 (Homo sapiens, UniProt P23219)
- ASSAY NAME: Inhibition of human Prostaglandin G/H synthase 1 at 10 ug/mL expressed as mean percent inhibition of control PGE-2 production
RECORDED METRIC: inhibition (%)

{"STRUCTURE": "CN1C(O)=C(C(=O)Nc2ccccc2Cl)c2cc(Cl)c(Cl)cc2S1(=O)=O", "ASSAY VALUE": 100}
{"STRUCTURE": "O=C(Nc1ccccn1)C1=C(O)c2ccccc2SC1", "ASSAY VALUE": 83}
{"STRUCTURE": "O=C(Nc1ccc(Cl)cc1Cl)C1=C(O)N(Cc2ccccc2)S(=O)(=O)c2ccc(Cl)cc21", "ASSAY VALUE": 100}
{"STRUCTURE": "CN1C(C(=O)Nc2ccccc2)=C(O)c2c(ccc3ccccc23)S1(=O)=O", "ASSAY VALUE": 18}
{"STRUCTURE": "O=C(Nc1ccccn1)C1=C(O)c2cc(Cl)ccc2SC1", "ASSAY VALUE": 92}

----------
- SYSTEM: Prostaglandin G/H synthase 1 (Homo sapiens)
- ASSAY NAME: Inhibition of human Prostaglandin G/H synthase 1 at 10 ug/mL expressed as mean percent inhibition of control PGE-2 production
The compounds listed here are annotated with their inhibition.

{"STRUCTURE": "Cc1cnc(N/C(O)=C2\\C(=O)N(Cc3ccccc3)C(=O)c3ccc(Cl)cc32)s1", "SYSTEM": "Prostaglandin G/H synthase 1 (Homo sapiens)", "inhibition": "83%"}
{"STRUCTURE": "CCn1c2c(c3ccccc31)S(=O)(=O)N(C)C(C(=O)Nc1ccccn1)=C2O", "SYSTEM": "Prostaglandin G/H synthase 1 (Homo sapiens)", "inhibition": "25%"}
{"STRUCTURE": "CN1C(O)=C(C(=O)Nc2ccc(Br)cc2)c2cc(Cl)ccc2S1(=O)=O", "SYSTEM": "Prostaglandin G/H synthase 1 (Homo sapiens)", "inhibition": "97%"}
{"STRUCTURE": "Cc1ccc2c(c1)S(=O)(=O)N(C)C(C(=O)Nc1ccccc1)=C2O", "SYSTEM": "Prostaglandin G/H synthase 1 (Homo sapiens)", "inhibition": "28%"}
{"STRUCTURE": "CN1C(C(=O)Nc2ccccc2)=C(O)c2ccccc2S1(=O)=O", "SYSTEM": "Prostaglandin G/H synthase 1 (Homo sapiens)", "inhibition": "26%"}
